Reported Kb values for a set of compounds
- Test System: Cell division protein FtsZ (Staphylococcus aureus)
- Sequence (whole entry): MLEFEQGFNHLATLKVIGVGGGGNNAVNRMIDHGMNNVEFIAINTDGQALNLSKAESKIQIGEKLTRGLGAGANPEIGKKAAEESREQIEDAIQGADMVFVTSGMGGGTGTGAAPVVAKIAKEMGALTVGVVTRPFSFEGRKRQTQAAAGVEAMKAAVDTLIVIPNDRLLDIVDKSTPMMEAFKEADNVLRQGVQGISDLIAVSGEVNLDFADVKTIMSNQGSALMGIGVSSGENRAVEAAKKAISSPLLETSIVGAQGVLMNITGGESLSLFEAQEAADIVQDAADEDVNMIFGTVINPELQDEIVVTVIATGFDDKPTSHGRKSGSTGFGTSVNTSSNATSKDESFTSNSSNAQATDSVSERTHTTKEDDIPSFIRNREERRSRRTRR
- Run Description: Binding affinity to Staphylococcus aureus FtsZ assessed as equilibrium binding constant by isothermal titration calorimetry
Assay Endpoint: Kb

> print(dat)
                                  structure  recorded.result
1  CN(C)c1ccc(/C=C/c2cc(N3CCCCC3)c3ccccc3[n+]2C)cc1.[I-]      2.02 10^5/M
2  CCCCCNc1cc(/C=C/c2ccc(N(C)C)cc2)[n+](C)c2ccccc12.[I-]      2.01 10^5/M
3  CC1CCN(c2cc(/C=C/c3ccc(N(C)C)cc3)[n+](C)c3ccccc23)CC1.[I-]      4.41 10^5/M
4  CC1CCN(c2cc(/C=C/c3ccc(N(C)C)cc3)c3ccccc3[n+]2C)CC1.[I-]      2.08 10^5/M
